src = PubChem BioAssay AID2060890

- Test system: LG0703-F948-PDC complex spheroid viability
- ASSAY INFO: Anticancer human tumor LG0703-F948-PDC patient-derived lung adenocarcinoma cell line growth inhibition [RAS]
- ASSAY SETUP: second compound 0.0316 µM; first compound 0.000949 µM; stronger effect = lower value
MEASURED PROPERTY: viability, T/C (%)
Write it as a number; the unit % goes unstated.

Please list viability, T/C recorded for the molecule CCc1c2c(nc3ccc(O)cc13)-c1cc3c(c(=O)n1C2)COC(=O)[C@]3(O)CC + C=CC(=O)N1CCN(c2nc(OCC3CCCN3C)nc3c(F)c(-c4nc(N)cc(C)c4C(F)(F)F)c(Cl)cc23)C(C)C1
102

Please list viability, T/C recorded for the molecule CCc1c2c(nc3ccc(O)cc13)-c1cc3c(c(=O)n1C2)COC(=O)[C@]3(O)CC + C#Cc1c(F)ccc2cc(O)cc(-c3ncc4c(N5CC6CCC(C5)N6)nc(OCC56CCCN5CC(F)C6)nc4c3F)c12
98.4

Please list viability, T/C recorded for the molecule CC1(C)CCC(Nc2ncc(C(F)(F)F)c(-c3c[nH]c4c(P(C)(C)=O)c(C#N)ccc34)n2)CN1 (centres undefined) + C=CC(=O)N1CCN(c2nc(OCC3CCCN3C)nc3c(F)c(-c4nc(N)cc(C)c4C(F)(F)F)c(Cl)cc23)C(C)C1
94

Please list viability, T/C recorded for the molecule CC1(C)CCC(Nc2ncc(C(F)(F)F)c(-c3c[nH]c4c(P(C)(C)=O)c(C#N)ccc34)n2)CN1 (centres undefined) + C#Cc1c(F)ccc2cc(O)cc(-c3ncc4c(N5CC6CCC(C5)N6)nc(OCC56CCCN5CC(F)C6)nc4c3F)c12
83.1

====

Task for the reader: assign each of the following molecules its reported viability, T/C.
- Tested on: LG0703-F948-PDC complex spheroid viability
- ASSAY INFO: Anticancer human tumor LG0703-F948-PDC cell line growth inhibition [RAS];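 further: spheroids exposed to agents for 7 days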;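 on viability, T/C: 100% = DMSO vehicle wells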
- ASSAY SETUP: second compound 10 µM; first compound 10 µM; stronger effect = lower value
Write it as a number; the unit % goes unstated.

Please list viability, T/C recorded for the molecule CC1(O)CCCC1n1c(=O)c(C(F)F)cc2cnc(NC3CCN(S(C)(=O)=O)CC3)nc21 (stereo not drawn) + C#Cc1c(F)ccc2cc(O)cc(-c3ncc4c(N5CC6CCC(C5)N6)nc(OCC56CCCN5CC(F)C6)nc4c3F)c12
4.24

Please list viability, T/C recorded for the molecule CC(=O)OC12COC1CC(O)C1(C)C(=O)C(O)C3=C(C)C(OC(=O)C(O)C(NC(=O)OC(C)(C)C)c4ccccc4)CC(O)(C(OC(=O)c4ccccc4)C21)C3(C)C (stereo not drawn) + C#Cc1c(F)ccc2cc(O)cc(-c3ncc4c(N5CC6CCC(C5)N6)nc(OCC56CCCN5CC(F)C6)nc4c3F)c12
5.54

Please list viability, T/C recorded for the molecule NC1c2ccccc2OC12CCN(c1cnc3c(N4CCCc5ncccc54)n[nH]c3n1)CC2 (stereo not drawn) + C#Cc1c(F)ccc2cc(O)cc(-c3ncc4c(N5CC6CCC(C5)N6)nc(OCC56CCCN5CC(F)C6)nc4c3F)c12
0.66

====

- Tested on: LG0703-F948-PDC complex spheroid viability
- ASSAY INFO: Anticancer human tumor LG0703-F948-PDC cell line growth inhibition [RAS];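 further: spheroids exposed to agents for 7 days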
- ASSAY SETUP: curve of first compound; second compound 0.003 µM
pIC50: −log10 of the molar value.
Please enter Criterion met where pIC50 is greater than or equal to 7, and Criterion not met where it is lower.

Could you verify whether the entry C[C@@H](NC(=O)c1ncnc(N)c1Cl)c1ncc(C(=O)Nc2cc(C(F)(F)F)c(Cl)cn2)s1 + CCn1c(-c2cc(N3CCN(C)CC3)cnc2C(C)OC)c2c3cc(ccc31)-c1csc(n1)CC(NC(=O)C1CC1C)C(=O)N1CCCC(N1)C(=O)OCC(C)(C)C2 shows pIC50 of no less than 7?
Criterion not met

Could you verify whether the entry Cc1nc(N2CCC3(CC2)COC(C)C3N)c(CO)nc1Sc1ccnc(N)c1Cl (stereo not given) + CCn1c(-c2cccnc2C(C)OC)c2c3cc(ccc31)N1CCOC(CC(NC(=O)C(C(C)C)N(C)C(=O)C3(F)CCN(C(=O)C#CC(C)(C)N(C)C)CC3)C(=O)N3CCCC(N3)C(=O)OCC(C)(C)C2)C1 shows pIC50 of no less than 7?
Criterion not met

Could you verify whether the entry CC1(C)CCC(Nc2ncc(C(F)(F)F)c(-c3c[nH]c4c(P(C)(C)=O)c(C#N)ccc34)n2)CN1 (stereo not given) + CCn1c(-c2cc(N3CCN(C)CC3)cnc2C(C)OC)c2c3cc(ccc31)-c1csc(n1)CC(NC(=O)C1CC1C)C(=O)N1CCCC(N1)C(=O)OCC(C)(C)C2 shows pIC50 of no less than 7?
Criterion met

Could you verify whether the entry CC(=O)OC12COC1CC(O)C1(C)C(=O)C(O)C3=C(C)C(OC(=O)C(O)C(NC(=O)OC(C)(C)C)c4ccccc4)CC(O)(C(OC(=O)c4ccccc4)C21)C3(C)C (stereo not given) + CCn1c(-c2cccnc2C(C)OC)c2c3cc(ccc31)N1CCOC(CC(NC(=O)C(C(C)C)N(C)C(=O)C3(F)CCN(C(=O)C#CC(C)(C)N(C)C)CC3)C(=O)N3CCCC(N3)C(=O)OCC(C)(C)C2)C1 shows pIC50 of no less than 7?
Criterion met

Could you verify whether the entry Nc1ccn(C2OC(CO)C(O)C2(F)F)c(=O)n1 (stereo not given) + CCn1c(-c2cccnc2C(C)OC)c2c3cc(ccc31)N1CCOC(CC(NC(=O)C(C(C)C)N(C)C(=O)C3(F)CCN(C(=O)C#CC(C)(C)N(C)C)CC3)C(=O)N3CCCC(N3)C(=O)OCC(C)(C)C2)C1 shows pIC50 of no less than 7?
Criterion met

Could you verify whether the entry CC1(O)CCCC1n1c(=O)c(C(F)F)cc2cnc(NC3CCN(S(C)(=O)=O)CC3)nc21 (stereo not given) + CCn1c(-c2cccnc2C(C)OC)c2c3cc(ccc31)N1CCOC(CC(NC(=O)C(C(C)C)N(C)C(=O)C3(F)CCN(C(=O)C#CC(C)(C)N(C)C)CC3)C(=O)N3CCCC(N3)C(=O)OCC(C)(C)C2)C1 shows pIC50 of no less than 7?
Criterion not met

Could you verify whether the entry NC1c2ccccc2OC12CCN(c1cnc3c(N4CCCc5ncccc54)n[nH]c3n1)CC2 (stereo not given) + CCn1c(-c2cccnc2C(C)OC)c2c3cc(ccc31)N1CCOC(CC(NC(=O)C(C(C)C)N(C)C(=O)C3(F)CCN(C(=O)C#CC(C)(C)N(C)C)CC3)C(=O)N3CCCC(N3)C(=O)OCC(C)(C)C2)C1 shows pIC50 of no less than 7?
Criterion met

Could you verify whether the entry CC1(O)CCCC1n1c(=O)c(C(F)F)cc2cnc(NC3CCN(S(C)(=O)=O)CC3)nc21 (stereo not given) + CCn1c(-c2cc(N3CCN(C)CC3)cnc2C(C)OC)c2c3cc(ccc31)-c1csc(n1)CC(NC(=O)C1CC1C)C(=O)N1CCCC(N1)C(=O)OCC(C)(C)C2 shows pIC50 of no less than 7?
Criterion met

Could you verify whether the entry C=CC(=O)N1CCN(c2nc(OCC3CCCN3C)nc3c(F)c(-c4nc(N)cc(C)c4C(F)(F)F)c(Cl)cc23)C(C)C1 (stereo not given) + CCn1c(-c2cccnc2C(C)OC)c2c3cc(ccc31)N1CCOC(CC(NC(=O)C(C(C)C)N(C)C(=O)C3(F)CCN(C(=O)C#CC(C)(C)N(C)C)CC3)C(=O)N3CCCC(N3)C(=O)OCC(C)(C)C2)C1 shows pIC50 of no less than 7?
Criterion not met

Could you verify whether the entry CC(C)n1nc(-c2ccc3oc(N)nc3c2)c2c(N)ncnc21 + CCn1c(-c2cccnc2C(C)OC)c2c3cc(ccc31)N1CCOC(CC(NC(=O)C(C(C)C)N(C)C(=O)C3(F)CCN(C(=O)C#CC(C)(C)N(C)C)CC3)C(=O)N3CCCC(N3)C(=O)OCC(C)(C)C2)C1 shows pIC50 of no less than 7?
Criterion met

Could you verify whether the entry CCC(CC)c1cc(NC2CCC(N)C2)n2nccc2n1 (stereo not given) + CCn1c(-c2cccnc2C(C)OC)c2c3cc(ccc31)N1CCOC(CC(NC(=O)C(C(C)C)N(C)C(=O)C3(F)CCN(C(=O)C#CC(C)(C)N(C)C)CC3)C(=O)N3CCCC(N3)C(=O)OCC(C)(C)C2)C1 shows pIC50 of no less than 7?
Criterion not met

Could you verify whether the entry CC(C)NCC(C(=O)N1CCN(c2ncnc3c2C(C)CC3O)CC1)c1ccc(Cl)cc1 (stereo not given) + CCn1c(-c2cc(N3CCN(C)CC3)cnc2C(C)OC)c2c3cc(ccc31)-c1csc(n1)CC(NC(=O)C1CC1C)C(=O)N1CCCC(N1)C(=O)OCC(C)(C)C2 shows pIC50 of no less than 7?
Criterion met

Could you verify whether the entry O=C(c1ccc(F)c(F)c1Nc1ccc(I)cc1F)N1CC(O)([C@@H]2CCCCN2)C1 + CCn1c(-c2cc(N3CCN(C)CC3)cnc2C(C)OC)c2c3cc(ccc31)-c1csc(n1)CC(NC(=O)C1CC1C)C(=O)N1CCCC(N1)C(=O)OCC(C)(C)C2 shows pIC50 of no less than 7?
Criterion met

Could you verify whether the entry C=CC(=O)Nc1cc(Nc2nccc(-c3cn(C)c4ccccc34)n2)c(OC)cc1N(C)CCN(C)C + CCn1c(-c2cc(N3CCN(C)CC3)cnc2C(C)OC)c2c3cc(ccc31)-c1csc(n1)CC(NC(=O)C1CC1C)C(=O)N1CCCC(N1)C(=O)OCC(C)(C)C2 shows pIC50 of no less than 7?
Criterion met

Could you verify whether the entry NC1c2ccccc2OC12CCN(c1cnc3c(N4CCCc5ncccc54)n[nH]c3n1)CC2 (stereo not given) + CCn1c(-c2cc(N3CCN(C)CC3)cnc2C(C)OC)c2c3cc(ccc31)-c1csc(n1)CC(NC(=O)C1CC1C)C(=O)N1CCCC(N1)C(=O)OCC(C)(C)C2 shows pIC50 of no less than 7?
Criterion met
